assay.info: in vivo
experimental.setup: female, BALB/c, mouse, iv, 5 mg/kg
Starred links: 1 amine or outer side, 2 acyl side, 3 side chain; linkers in the order of their positions; H or OH if unused. Positions of bridges follow the written chain, without caps; N, C: chain ends. Non-standard residues stand in square brackets, D forms with d. Residues, ends and D or L forms follow the SMILES beside them. *: point of attachment. dAsp(3R-OH) = N[C@@H](C(=O)O)[C@@H](O)C(=O)O; X1 = NC[C@H](O)[C@@H](N[*:1])C(=O)[*:2]; X2 = CCC(C)(O)[C@H](N[*:1])C(=O)[*:2]; d(aIle) = CC[C@H](C)[C@@H](N)C(=O)O; Myristoyl = CCCCCCCCCCCCCC(=O)*; dOrn = NCCC[C@@H](N)C(=O)O; hSer = N[C@@H](CCO)C(=O)O
experimental.endpoint: MRT
Hey, just the number and the unit after it is fine.

Input: // MRT lookup, key: CCCCCCCCCCCCCC(=O)N[C@H](CCCN)C(=O)N[C@@H](CO)C(=O)N[C@H](C(=O)N[C@@H](C(=O)N[C@@H](C(=O)N[C@@H]1C(=O)NCC(=O)N[C@@H](C(C)(O)CC)C(=O)N[C@H]([C@@H](C)CC)C(=O)N[C@@H](CCO)C(=O)N[C@@H](C)C(=O)N[C@H]([C@@H](C)CC)C(=O)N[C@@H](CCC(=O)O)C(=O)O[C@@H]1C)[C@@H](O)CN)[C@@H](O)C(=O)O)C(C)C (stereo partly drawn) [Compound 1, Turnercyclamycin A] (Myristoyl-[dOrn]SV[dAsp(3R-OH)][X1]TG[X2][d(aIle)][hSer]A[d(aIle)]E; ester 6-C)
Output: 5.83 h

* * *

assay.info: in vivo
experimental.setup: female, BALB/c, mouse, iv, 5 mg/kg
Starred links: 1 amine or outer side, 2 acyl side, 3 side chain; linkers in the order of their positions; H or OH if unused. Positions of bridges follow the written chain, without caps; N, C: chain ends. Non-standard residues stand in square brackets, D forms with d. Residues, ends and D or L forms follow the SMILES beside them. *: point of attachment. dAsp(3R-OH) = N[C@@H](C(=O)O)[C@@H](O)C(=O)O; X1 = NC[C@H](O)[C@@H](N[*:1])C(=O)[*:2]; X2 = CCC(C)(O)[C@H](N[*:1])C(=O)[*:2]; d(aIle) = CC[C@H](C)[C@@H](N)C(=O)O; Myristoyl = CCCCCCCCCCCCCC(=O)*; dOrn = NCCC[C@@H](N)C(=O)O; hSer = N[C@@H](CCO)C(=O)O
experimental.endpoint: clearance
A bare number is not enough; add the unit after it.

Input: Bench note: what clearance did CCCCCCCCCCCCCC(=O)N[C@H](CCCN)C(=O)N[C@@H](CO)C(=O)N[C@H](C(=O)N[C@@H](C(=O)N[C@@H](C(=O)N[C@@H]1C(=O)NCC(=O)N[C@@H](C(C)(O)CC)C(=O)N[C@H]([C@@H](C)CC)C(=O)N[C@@H](CCO)C(=O)N[C@@H](C)C(=O)N[C@H]([C@@H](C)CC)C(=O)N[C@@H](CCC(=O)O)C(=O)O[C@@H]1C)[C@@H](O)CN)[C@@H](O)C(=O)O)C(C)C (stereo partly drawn) [Compound 1, Turnercyclamycin A] (Myristoyl-[dOrn]SV[dAsp(3R-OH)][X1]TG[X2][d(aIle)][hSer]A[d(aIle)]E; ester 6-C) show?
Output: 0.29 mL/min/kg

Where do these numbers come from? They come from patent US12215129B2.
